B1: BRF1 (parent)
chain: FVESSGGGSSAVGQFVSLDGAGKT

# Variants of: B1
# Measurement protocol: protein stability index of a GFP-peptide fusion (GPS, HEK-293T) (PSI 1-6); higher = more stable;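 note: lentivirally expressed fusions sorted by FACS into six bins by GFP to DsRed ratio, PSI derived from sequencing read proportions per bin multiplied by bin number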
# Condition: c terminus: a fixed tail appended
Reported protein stability index maps to class as: low bin (below 2), mid bin (2 to below 3), high bin (3 or more)

Mutation string | Class assignment
Q14R | low bin
A11E | high bin

Tag the class for `E3N`
low bin

Consider next the variant `V16E` in the same way.
high bin
